- Tested target: HLA-A*0201 (HLA-A2:Ig fusion protein) (Homo sapiens, UniProt P04439, D140Y/D185E/D98H/E176V/E277Q/G131W/G231S/I119V/I121R/I166T/I218V/L300P/L318F/N151K/N90K/P208A/P217A/Q86G/Q94H/R138H/R169H/T345S)
- Construct: two extracellular portions of the major histocompatibility complex (MHC) class I HLA-A2 domains fused to the […] of a mouse IgG1 antibody; purchased BD Biosciences (HLA-A2:Ig); Fitzgerald Industries (β2-microglobulin)
- Test method notes: Competitive binding assay using HLA-A2:Ig fusion protein (fluorescence polarization)
- Applied conditions: read-out: IC50
Where no end group is shown, it is not given here.
Readout name: IC50 (nM)
Your answer should be a plain number; it is taken to be in nM.

Just so you know, measured IC50 for RTNDWDFVV [DENV2 (1)] came out at 167
